Biological target: CETP (Homo sapiens (Human))
Test: Scintillation Proximity Assay (SPA) for CETP activity
Format: biochemical
Details: Table 2, read-out: IC50 SPA
pIC50: −log10 of the molar value.
pIC50 reference
recorded_metric: pIC50

molecule=O[C@H](CN1c2ccccc2N(CC2CCOCC2)C[C@H]1c1cccc(OC(F)(F)F)c1)C(F)(F)F reported_measurement=7.54
molecule=O[C@H](CN1c2ccccc2N(Cc2cccc(OC(F)F)c2)C[C@H]1c1cccc(C(F)(F)F)c1)C(F)(F)F reported_measurement=7.80
molecule="O[C@H](CN1c2ccccc2N(Cc2cccc(OC(F)(F)F)c2)CC1c1ccc(-c2ccccc2)cc1)C(F)(F)F (some centres unmarked)" reported_measurement=7.60
molecule=O[C@H](CN1c2ccccc2N(Cc2ncccc2N2CCOCC2)C[C@H]1c1cccc(C(F)(F)F)c1)C(F)(F)F reported_measurement=5.80
molecule=O[C@H](CN1c2ccccc2N(Cc2ccnc(N3CCOCC3)c2)C[C@H]1c1cccc(C(F)(F)F)c1)C(F)(F)F reported_measurement=6.49
molecule="O[C@H](CN1c2c(ccc(F)c2F)N(Cc2cccc(OC(F)(F)F)c2)CC1c1cccc(C(F)(F)F)c1)C(F)(F)F (some centres unmarked)" reported_measurement=6.80
molecule="O[C@H](CN1c2ccccc2N(Cc2cccc(OC(F)(F)F)c2)CC1c1cccc(-c2ccccc2)c1)C(F)(F)F (some centres unmarked)" reported_measurement=6.79
molecule=O[C@H](CN1c2ccccc2N(CC2=CCCCC2)C[C@H]1c1cccc(OC(F)(F)F)c1)C(F)(F)F reported_measurement=8.10

* * *

pIC50 reference
Molecular target: endogenous CETP from serum (Homo sapiens (Human))
Sequence (P11597 18-493 limits assumed): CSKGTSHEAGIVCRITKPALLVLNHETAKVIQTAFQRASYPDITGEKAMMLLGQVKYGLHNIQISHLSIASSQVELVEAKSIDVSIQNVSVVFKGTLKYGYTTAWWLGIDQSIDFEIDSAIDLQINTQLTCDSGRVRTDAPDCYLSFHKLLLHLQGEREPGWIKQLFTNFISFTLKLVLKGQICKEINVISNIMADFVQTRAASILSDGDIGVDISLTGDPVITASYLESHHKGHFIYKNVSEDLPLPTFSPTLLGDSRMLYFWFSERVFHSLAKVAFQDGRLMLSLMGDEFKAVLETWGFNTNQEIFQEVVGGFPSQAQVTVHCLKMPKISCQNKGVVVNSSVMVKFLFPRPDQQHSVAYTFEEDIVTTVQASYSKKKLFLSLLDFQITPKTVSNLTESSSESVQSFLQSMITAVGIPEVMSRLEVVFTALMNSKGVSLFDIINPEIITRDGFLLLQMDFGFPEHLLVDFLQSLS
Assay: RTA assay using endogenous CETP from serum (95% human serum)
Conditions: RTA in 95% human serum, Table 2
pIC50: −log10 of the molar value.
recorded_metric: pIC50

compound="CC(C)(O)c1ccc(C2CN(Cc3cccc(OC(F)(F)F)c3)c3ccccc3N2C[C@@H](O)C(F)(F)F)cc1 (stereo partly shown)" recorded_metric=pIC50 reported_measurement=7.62
compound="O[C@H](CN1c2ccc(F)cc2N(Cc2cccc(OC(F)(F)F)c2)CC1c1cccc(OC(F)F)c1)C(F)(F)F (stereo partly shown)" recorded_metric=pIC50 reported_measurement=7.80
compound="O[C@H](CN1c2ccccc2N(Cc2cccc(OC(F)(F)F)c2)CC1c1cccc(OC(F)F)c1)C(F)(F)F (stereo partly shown)" recorded_metric=pIC50 reported_measurement=8.12
compound="O[C@H](CN1c2ccccc2N(Cc2cccc(OC(F)F)c2)CC1c1cccc(OC(F)F)c1)C(F)(F)F (stereo partly shown)" recorded_metric=pIC50 reported_measurement=7.85

* * *

Target: CETP (Homo sapiens (Human))
Test: Scintillation Proximity Assay (SPA) for CETP activity
Type: biochemical
Details: Table 1, read-out: IC50
// classify: if (IC50 < 400 nM) yes else no

smiles_data=Cc1ccccc1CN1C[C@@H](c2cccc(C(F)(F)F)c2)N(C[C@@H](O)C(F)(F)F)c2ccccc21 group_label=no
smiles_data=O[C@H](CN1c2ccccc2N(Cc2ccc(Cl)cc2)C[C@H]1c1cccc(C(F)(F)F)c1)C(F)(F)F group_label=no
smiles_data=Cc1ccc(C(F)(F)F)cc1CN1C[C@@H](c2cccc(C(F)(F)F)c2)N(C[C@@H](O)C(F)(F)F)c2ccccc21 group_label=yes
smiles_data=O[C@H](CN1c2ccccc2N(Cc2cccc(OC(F)(F)F)c2)C[C@H]1c1ccc(Cl)cc1)C(F)(F)F group_label=yes
smiles_data=Cc1ccc([C@@H]2CN(Cc3cccc(OC(F)(F)F)c3)c3ccccc3N2C[C@@H](O)C(F)(F)F)cc1 group_label=yes
smiles_data=O[C@H](CN1c2ccccc2N(Cc2cccc(C(F)(F)F)c2)C[C@H]1c1cccc(C(F)(F)F)c1)C(F)(F)F group_label=yes
smiles_data=Cc1cccc(CN2C[C@@H](c3cccc(C(F)(F)F)c3)N(C[C@@H](O)C(F)(F)F)c3ccccc32)n1 group_label=no

* * *

pIC50 reference
Molecular target: CETP (Homo sapiens (Human), UniProt P11597)
Experiment: Scintillation Proximity Assay (SPA) for CETP activity
Assay type: biochemical
Conditions: Table 1, read-out: IC50
pIC50: −log10 of the molar value.
recorded_metric: pIC50

molecule="O[C@H](CN1c2ccccc2N(C2CCCc3ccccc32)CC1c1cccc(C(F)(F)F)c1)C(F)(F)F (stereo partly shown)" target_or_system="CETP (Homo sapiens (Human), UniProt P11597)" reported_measurement=7.92
molecule=O[C@H](CN1c2ccccc2N(Cc2ccsc2)C[C@H]1c1cccc(C(F)(F)F)c1)C(F)(F)F target_or_system="CETP (Homo sapiens (Human), UniProt P11597)" reported_measurement=6.34
molecule=O[C@H](CN1c2ccccc2N(Cc2cccc(Cl)c2Cl)C[C@H]1c1cccc(C(F)(F)F)c1)C(F)(F)F target_or_system="CETP (Homo sapiens (Human), UniProt P11597)" reported_measurement=6.77
molecule=O[C@H](CN1c2ccccc2N(Cc2cc(F)cc(C(F)(F)F)c2)C[C@H]1c1cccc(C(F)(F)F)c1)C(F)(F)F target_or_system="CETP (Homo sapiens (Human), UniProt P11597)" reported_measurement=7.34

* * *

Molecular target: CETP (Homo sapiens (Human))
Assay: Scintillation Proximity Assay (SPA) for CETP activity
Format: biochemical
Settings: read-out: SPA IC50
Method: Protocol: Scintillation Proximity Assay (SPA) for CETP Activity First, low density lipoprotein (LDL) (Meridian) was biotinylated by incubating LDL with biotin for 1 hour on ice, after which it was dialyzed to remove free biotin. […] The assay was then mixed and counted after one half hour in a Microbeta plate reader.
recorded_metric: IC50 (nM)

smiles_data=CS(=O)(=O)c1ccc([C@@H]2CN(Cc3cccc(OC(F)(F)F)c3)c3ccccc3N2C[C@@H](O)C(F)(F)F)cc1 unit_abbrev=nM reported_measurement=96
smiles_data=COC(=O)c1cccc([C@@H]2CN(Cc3cccc(OC(F)(F)F)c3)c3ccccc3N2C[C@@H](O)C(F)(F)F)c1 unit_abbrev=nM reported_measurement=27
smiles_data=CN(C)c1ncc([C@@H]2CN(Cc3cccc(OC(F)(F)F)c3)c3ccccc3N2C[C@@H](O)C(F)(F)F)cn1 unit_abbrev=nM reported_measurement=30
smiles_data=O[C@H](CN1c2ccccc2N(Cc2cccc(OC(F)(F)F)c2)C[C@H]1c1ccc(C(F)(F)F)cc1)C(F)(F)F unit_abbrev=nM reported_measurement=4

* * *

pIC50 reference
Target: CETP (Homo sapiens (Human))
Experiment: Scintillation Proximity Assay (SPA) for CETP activity
Assay type: biochemical
Conditions: read-out: SPA IC50
pIC50: −log10 of the molar value.
recorded_metric: pIC50

molecule="Cc1cc([C@@H]2CN(Cc3cccc(OC(F)(F)F)c3)c3ccccc3N2C[C@@H](O)C(F)(F)F)n(C)n1 [Example 28]" recorded_metric=pIC50 reported_measurement=6.41
molecule="O[C@H](CN1c2ccccc2N(Cc2cccc(OC(F)(F)F)c2)C[C@H]1c1ccc(C(F)(F)F)nc1)C(F)(F)F [Example 26]" recorded_metric=pIC50 reported_measurement=7.62
molecule="C[C@@H](c1ccccc1)N1C[C@@H](c2cccc(C(F)(F)F)c2)N(C[C@@H](O)C(F)(F)F)c2ccccc21 [Example 14]" recorded_metric=pIC50 reported_measurement=5.84
molecule="C[C@H](c1ccccc1)N1C[C@@H](c2cccc(C(F)(F)F)c2)N(C[C@@H](O)C(F)(F)F)c2ccccc21 [Example 15]" recorded_metric=pIC50 reported_measurement=7.85
molecule="O[C@H](CN1c2ccccc2N(Cc2cccc(OC(F)(F)F)c2)C[C@H]1c1cccc(OC(F)(F)C(F)F)c1)C(F)(F)F [Example 18]" recorded_metric=pIC50 reported_measurement=7.82
molecule="C[C@H](c1cccc(C(F)(F)F)c1)N1C[C@@H](c2cccc(C(F)(F)F)c2)N(C[C@@H](O)C(F)(F)F)c2ccccc21 [Example 13]" recorded_metric=pIC50 reported_measurement=8.00
molecule="O[C@H](CN1c2ccccc2N(Cc2cccc(OC(F)(F)F)c2)C[C@H]1c1cccnc1)C(F)(F)F [Example 22]" recorded_metric=pIC50 reported_measurement=6.59

* * *

Target: CETP (Homo sapiens (Human), UniProt P11597)
Experiment: RTA assay, CETP-catalyzed CE and TG transfer, recombinant CETP (2% human serum)
Type: biochemical
pIC50: −log10 of the molar value.
recorded_metric: pIC50

compound=O[C@H](CN1c2ccccc2N(Cc2cccc(OC(F)(F)C(F)F)c2)C[C@H]1c1ccccc1)C(F)(F)F recorded_metric=pIC50 reported_measurement=6.95
compound=O[C@H](CN1c2ccccc2N(Cc2cc(OC(F)(F)F)ccc2F)C[C@H]1c1ccccc1)C(F)(F)F recorded_metric=pIC50 reported_measurement=7.96
compound=O[C@@H](CN1c2ccccc2N(Cc2cccc(OC(F)(F)F)c2)C[C@H]1c1ccccc1)C(F)(F)F recorded_metric=pIC50 reported_measurement=5.87
compound=O[C@H](CN1c2ccccc2N(Cc2cccc(F)c2)C[C@H]1c1ccccc1)C(F)(F)F recorded_metric=pIC50 reported_measurement=6.96
compound="O[C@H](CN1c2ccccc2N(Cc2cccc(OC(F)(F)F)c2)C[C@H]1c1ccccc1)C(F)(F)F [Example 1]" recorded_metric=pIC50 reported_measurement=7.72
compound=CCc1cc(CN2C[C@@H](c3ccccc3)N(C[C@@H](O)C(F)(F)F)c3ccccc32)ccc1Cl recorded_metric=pIC50 reported_measurement=7.52
compound="O[C@H](CN1c2ccccc2N(Cc2cccc(OC(F)(F)F)c2)C[C@H]1c1ccccc1)C(F)(F)F [Example 17]" recorded_metric=pIC50 reported_measurement=7.47
